- Tested on: Streptococcus pneumoniae Stpn_280-962
- protocol.description: MIC, broth microdilution (NCCLS)
- Format: cell-based
- assay.conditions: Table 5, Strain ID G (Table 4): S. pneumoniae Stpn_280-962 Pen S

{"columns": ["compound", "system.name", "MIC"],
 "data": [
  ["CC[C@H]1OC(=O)[C@H](C)C(=O)[C@H](C)[C@@H](OC2O[C@H](C)C[C@H](N(C)C)[C@H]2O)[C@@](C)(OC)C[C@@H](C)C(=O)[C@H](C)[C@H]2N(CCCCc3ccnc4ccccc34)C(=O)O[C@]12CC (some centres unmarked)", "Streptococcus pneumoniae Stpn_280-962", "=0.05"],
  ["CC[C@H]1OC(=O)[C@H](C)C(=O)[C@H](C)[C@@H](OC2O[C@H](C)C[C@H](N(C)C)[C@H]2O)[C@@](C)(OC)C[C@@H](C)C(=O)[C@H](C)[C@@H]2[C@@H]1OC(=O)N2CCCCn1cnc2ncccc21 (some centres unmarked)", "Streptococcus pneumoniae Stpn_280-962", "=0.5"]
]}

====

- System: Streptococcus pneumoniae Stpn_Mef S 3427
- protocol.description: MIC, broth microdilution (NCCLS)
- Format: cell-based
- assay.conditions: Table 10, Strain ID Q (Table 8): Streptococcus pneumoniae Stpn_Mef S 3427; in µg/mL (unit assumed)

{"columns": ["molecule", "MIC"],
 "data": [
  ["C=C[C@]12OC(=O)N(CCCCn3cnc(-c4ccc(F)nc4)c3)[C@@H]1[C@@H](C)C(=O)[C@H](C)C[C@](C)(OC)[C@H](OC1O[C@H](C)C[C@H](N(C)C)[C@H]1O)[C@@H](C)C(=O)[C@@H](C)C(=O)O[C@@H]2CC (some centres unmarked) [XIX]", 0.1],
  ["CC[C@H]1OC(=O)[C@@](C)(F)C(=O)[C@H](C)[C@@H](OC2O[C@H](C)C[C@H](N(C)C)[C@H]2O)[C@@](C)(OC)C[C@@H](C)C(=O)[C@H](C)[C@H]2N(CCCCn3cnc(-c4ccc(C)nc4)c3)C(=O)O[C@]12CC (some centres unmarked) [XIV]", 0.1],
  ["CC[C@H]1OC(=O)[C@H](C)C(=O)[C@H](C)[C@@H](OC2O[C@H](C)C[C@H](N(C)C)[C@H]2O)[C@@](C)(OC)C[C@@H](C)C(=O)[C@H](C)[C@H]2N(CCCCn3cnc(-c4ccc(OC)nc4)c3)C(=O)O[C@]12CC (some centres unmarked) [XVII]", 0.2],
  ["C=C[C@]12OC(=O)N(CCCCn3cnc(-c4ccc(N(C)C)nc4)c3)[C@@H]1[C@@H](C)C(=O)[C@H](C)C[C@](C)(OC)[C@H](OC1O[C@H](C)C[C@H](N(C)C)[C@H]1O)[C@@H](C)C(=O)[C@@H](C)C(=O)O[C@@H]2CC (some centres unmarked) [XXIV]", 0.4]
]}

====

- Tested on: Streptococcus pneumoniae Stpn_Mef 5654
- protocol.description: MIC, broth microdilution (NCCLS)
- Format: cell-based
- assay.conditions: Table 5, Strain ID J (Table 4): S. pneumoniae Stpn_Mef 5654; in µg/mL (unit assumed)
value.type: MIC

{"columns": ["compound", "value.type", "reported.result"],
 "data": [
  ["CC[C@H]1OC(=O)[C@H](C)C(=O)[C@H](C)[C@@H](OC2O[C@H](C)C[C@H](N(C)C)[C@H]2O)[C@@](C)(OC)C[C@@H](C)C(=O)[C@H](C)[C@@H]2[C@@H]1OC(=O)N2CCCCc1ccc2ccccc2n1 (stereo partly drawn)", "MIC", 0.2],
  ["CC[C@H]1OC(=O)[C@H](C)C(=O)[C@H](C)[C@@H](OC2O[C@H](C)C[C@H](N(C)C)[C@H]2O)[C@@](C)(OC)C[C@@H](C)C(=O)[C@H](C)[C@@H]2[C@@H]1OC(=O)N2CCCCn1cnc2ncccc21 (stereo partly drawn)", "MIC", 3.13],
  ["CC[C@H]1OC(=O)[C@H](C)C(=O)[C@H](C)[C@@H](OC2O[C@H](C)C[C@H](N(C)C)[C@H]2O)[C@@](C)(OC)C[C@@H](C)C(=O)[C@H](C)[C@H]2N(CCCCn3cnc(-c4ccccc4)c3)C(=O)O[C@]12CC (stereo partly drawn)", "MIC", 0.4]
]}

====

- Test system: Enterococcus faecalis Enfa_bc 11148-2
- protocol.description: MIC, broth microdilution (NCCLS)
- Assay type: cell-based
- assay.conditions: strain ID F; broth microdilution; in µg/mL (unit assumed)
// reported MIC, strain ID F per item

{"columns": ["compound", "MIC, strain ID F"],
 "data": [
  ["C=C[C@]12OC(=O)N(CCCCn3cnc(-c4cnc(Cl)c(C)c4)c3)[C@@H]1[C@@H](C)C(=O)[C@H](C)C[C@](C)(OC)[C@H](OC1O[C@H](C)C[C@H](N(C)C)[C@H]1O)[C@@H](C)C(=O)[C@@H](C)C(=O)O[C@@H]2CC (stereo partly drawn) [XXXVIII]", 3.13],
  ["C#C[C@]12OC(=O)N(CCCCn3cnc(-c4ccc(Cl)nc4)c3)[C@@H]1[C@@H](C)C(=O)[C@H](C)C[C@](C)(OC)[C@H](OC1O[C@H](C)C[C@H](N(C)C)[C@H]1O)[C@@H](C)C(=O)[C@@H](C)C(=O)O[C@@H]2CC (stereo partly drawn) [XXXIV]", 0.4],
  ["CC[C@H]1OC(=O)[C@H](C)C(=O)[C@H](C)[C@@H](OC2O[C@H](C)C[C@H](N(C)C)[C@H]2O)[C@@](C)(OC)C[C@@H](C)C(=O)[C@H](C)[C@@H]2[C@@H]1OC(=O)N2CCCCn1cnc(-c2ccc(Cl)nc2)c1 (stereo partly drawn) [XXVIII]", 0.4],
  ["C=C[C@]12OC(=O)N(CCCCn3cnc(-c4ccc(Cl)nc4)c3C)[C@@H]1[C@@H](C)C(=O)[C@H](C)C[C@](C)(OC)[C@H](OC1O[C@H](C)C[C@H](N(C)C)[C@H]1O)[C@@H](C)C(=O)[C@@H](C)C(=O)O[C@@H]2CC (stereo partly drawn) [XXXVII]", 0.78],
  ["C#C[C@]12OC(=O)N(CCCCn3cnc(-c4ccc(OC)nc4)c3)[C@@H]1[C@@H](C)C(=O)[C@H](C)C[C@](C)(OC)[C@H](OC1O[C@H](C)C[C@H](N(C)C)[C@H]1O)[C@@H](C)C(=O)[C@@H](C)C(=O)O[C@@H]2CC (stereo partly drawn) [XXXII]", 1.56]
]}

====

- Tested on: Staphylococcus epidermidis Step_f50654
- protocol.description: MIC, broth microdilution (NCCLS)
- Format: cell-based
- assay.conditions: Table 7, Strain ID C (Table 6): S. epidermidis Step_f50654; in µg/mL (unit assumed)
- Experimental: Strains. The bacterial isolates listed in Table 4 were cultivated from −70° C. frozen stocks by two consecutive overnight passages (P1, P2) at 35° C. on 5% blood agar (Remel, Lenexa, Kans.). Chocolate agar (Remel) is used for Haemophilus influenzae. H. influenzae and Streptococcus pneumoniae are incubated in 5-10% CO2 Drug Stock Preparation. […] Susceptibility Testing. MICs are determined by the broth microdilution method in accordance with the NCCLS guidelines. […]
// reported MIC per item

{"columns": ["compound", "MIC"],
 "data": [
  ["CCC1OC(=O)C(C)C(=O)C(C)C(OC2OC(C)CC(N(C)C)C2O)C(C)(OC)CC(C)C(=O)C(C)C2C1OC(=O)N2CCCCc1cc(C)nc2ccccc12 (stereo not shown) [Compound 20o]", 0.2],
  ["CCC1OC(=O)C(C)C(=O)C(C)C(OC2OC(C)CC(N(C)C)C2O)C(C)(OC)CC(C)C(=O)C(C)C2C1OC(=O)N2CCCOc1cccc(-c2cccnc2)c1 (stereo not shown) [Compound 20s]", 0.4],
  ["C/C=C\\[C@]12OC(=O)N(CCCCn3cnc(-c4cccnc4)c3)[C@@H]1[C@@H](C)C(=O)[C@H](C)C[C@](C)(OC)[C@H](OC1O[C@H](C)C[C@H](N(C)C)[C@H]1O)[C@@H](C)C(=O)[C@](C)(F)C(=O)O[C@@H]2CC (stereo partly shown)", 0.2],
  ["CCC1OC(=O)C(C)C(=O)C(C)C(OC2OC(C)CC(N(C)C)C2O)C(C)(OC)CC(C)C(=O)C(C)C2C1OC(=O)N2CCCCc1ncc(-c2cccc(N)c2)s1 (stereo not shown) [Compound 20v]", 0.2]
]}

====

- protocol.description: In vivo pharmacokinetic study in rats, plasma (IV and PO)
- Set-up: species or system Sprague-Dawley rats
- assay.conditions: rat, PO = 15 mg/kg
// reported F, PO per item
value.type: F, PO (%)

{"columns": ["compound", "unit", "reported.result"],
 "data": [
  ["C=C[C@]12OC(=O)N(CCCCn3cnc(-c4ccc(Cl)nc4)c3)[C@@H]1[C@@H](C)C(=O)[C@H](C)C[C@](C)(OC)[C@H](OC1O[C@H](C)C[C@H](N(C)C)[C@H]1O)[C@@H](C)C(=O)[C@@H](C)C(=O)O[C@@H]2CC (stereo partly shown)", "%", 26],
  ["CC[C@H]1OC(=O)[C@@](C)(F)C(=O)[C@H](C)[C@@H](OC2O[C@H](C)C[C@H](N(C)C)[C@H]2O)[C@@](C)(OC)C[C@@H](C)C(=O)[C@H](C)[C@H]2N(CCCCn3cnc(-c4ccc(C)nc4)c3)C(=O)O[C@]12CC (stereo partly shown)", "%", 43],
  ["C=C[C@]12OC(=O)N(CCCCn3cnc(-c4ccc(OC)nc4)c3)[C@@H]1[C@@H](C)C(=O)[C@H](C)C[C@](C)(OC)[C@H](OC1O[C@H](C)C[C@H](N(C)C)[C@H]1O)[C@@H](C)C(=O)[C@@H](C)C(=O)O[C@@H]2CC (stereo partly shown)", "%", 51],
  ["CC[C@H]1OC(=O)[C@H](C)C(=O)[C@H](C)[C@@H](O[C@@H]2O[C@H](C)C[C@H](N(C)C)[C@H]2O)[C@](C)(OC)C[C@@H](C)C(=O)[C@H](C)[C@H]2N(CCCCn3cnc(-c4cccnc4)c3)C(=O)O[C@]12C [Telithromycin, telithromycin, reference compound]", "%", 11]
]}
